tested on: Saccharomyces uvarum_SOA2; assay: maximal growth rate with compound as sole sulfur source (OD600 per h); higher = better growth / uptake of the sulfur source; settings: sulfur source concentration 200 µM; S. cerevisiae S288C/BY sul1Δ sul2Δ soa1Δ with transporter ortholog inserted at SOA1 locus; sulfur-free B medium, 4% glucose, pH 6.5, sole sulfur source
Where a name gives a salt, the structure may show the parent alone.
compounds and their reported maximal growth rate
Please respond with just the number, no unit label.

# compound, measured-on, assay-value
data = [
    ("CCS(=O)(=O)O [Ethanesulfonate]", "Saccharomyces uvarum_SOA2", 0.081),
]

QUERY: Entry O=S(=O)(O)O [sulfate] , system Saccharomyces uvarum_SOA2: what maximal growth rate was measured?
RESULT: 0.00324

QUERY: Entry O=S(O)O , system Saccharomyces uvarum_SOA2: what maximal growth rate was measured?
RESULT: 0.0556

QUERY: Entry O=S(=O)(O)CO [Hydroxymethane sulfonate] , system Saccharomyces uvarum_SOA2: what maximal growth rate was measured?
RESULT: 0.107

QUERY: Entry CCCS(=O)(=O)O [Propanesulfonate] , system Saccharomyces uvarum_SOA2: what maximal growth rate was measured?
RESULT: 0.0773

QUERY: Entry O=C(O)CS(=O)(=O)O , system Saccharomyces uvarum_SOA2: what maximal growth rate was measured?
RESULT: 0.0314

QUERY: Entry N[C@@H](CS(=O)(=O)O)C(=O)O , system Saccharomyces uvarum_SOA2: what maximal growth rate was measured?
RESULT: 0.00261

QUERY: Entry C[N+](C)(C)CCOS(=O)(=O)[O-] [Choline sulfate] , system Saccharomyces uvarum_SOA2: what maximal growth rate was measured?
RESULT: 0.00318

QUERY: Entry O=S(=O)(O)CCO [Isethionate] , system Saccharomyces uvarum_SOA2: what maximal growth rate was measured?
RESULT: 0.0695

Where do the numbers come from? From the supplement of paper PMC5303821.
